The origin of these recorded values is patent US20120093811A1.

Target: T1, Source 1 VEGF-D, mature dimeric recombinant human VEGF-D (CSIRO) (human, UniProt O43915 89-205)
T1 sequence: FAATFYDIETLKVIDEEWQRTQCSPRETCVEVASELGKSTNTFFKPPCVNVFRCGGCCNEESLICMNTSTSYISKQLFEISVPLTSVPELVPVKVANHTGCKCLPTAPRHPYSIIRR
Assay: cell-based or functional assay
measureName: rank in the VEGFR-3-Ba/F3 bioassay (rank)
Answers are plain numbers, in rank.

Below are worked cases with known answers.
{"binder": "humanized IgG antibody derived from clone HU75 (antibody, V domains shown, IgG) VH: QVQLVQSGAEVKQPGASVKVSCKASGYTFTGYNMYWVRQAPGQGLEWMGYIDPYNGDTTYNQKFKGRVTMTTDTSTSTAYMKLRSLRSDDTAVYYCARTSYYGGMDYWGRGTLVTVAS VL: DIVMTQTPLSGPVTLGQPASISCRSSQSLVHSNGNTYLHWLQQRPGQPPRLLIYKVSNRFSGVPDRFSGSGAGTDFTLKISRVEAEDVGVYYCSQSTHVPRTFGRGTKLEIKR", "valueUnit": "rank", "rank in the VEGFR-3-Ba/F3 bioassay": 7}
{"binder": "humanized IgG antibody derived from clone HH69 (antibody, V domains shown, IgG) VH: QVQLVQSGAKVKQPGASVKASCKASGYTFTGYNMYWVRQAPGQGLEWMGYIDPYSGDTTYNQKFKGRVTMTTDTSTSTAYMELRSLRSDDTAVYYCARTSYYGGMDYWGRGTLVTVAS VL: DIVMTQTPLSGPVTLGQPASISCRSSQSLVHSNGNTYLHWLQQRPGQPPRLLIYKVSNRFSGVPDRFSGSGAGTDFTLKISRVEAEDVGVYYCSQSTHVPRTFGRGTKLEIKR", "valueUnit": "rank", "rank in the VEGFR-3-Ba/F3 bioassay": 3}

Attention now shifts to the item below.
rank in the VEGFR-3-Ba/F3 bioassay measured on humanized IgG antibody derived from clone HW78 (antibody, V domains shown, IgG) VH: QVQLVQSGAEVKQPGASVKVSCKARGYTFTGYNMYWVRQAPGQGLEWMGYIDPYNGDTTYNQKFKGRVTMTTDTSTGTAYMKLRSLRSDDTAVYYCARTSYYGGMDYWGRGTLVTVAS VL: DIVMTQTPLSSPVTLGQPASISCRSSQSLVHSNGNTYLHWLQQRPGQPPRLLIYKVSNRFSGVPDRFSGSGAGTDFTLKISRVEAEDVGVYYCSQSTHVPRTFGQGTKLEIKR = 4
